Just for reference, PubChem BioAssay (NCI) is where these values come from.

Tested on: CCRF-CEM leukemia
Experiment: NCI-60 one-dose screen, 48 h (100 = growth as untreated, 0 = no growth, -100 = all killed)
Conditions: 10 µM unless noted
About 83,000 compounds went through this panel and 20% of them were active in at least one assay; those are over-represented in the sample as a whole. Activity calls are given as the source filed them. How the source made its calls: active means growth percent below 10; inactive means the rest.
TEST_READOUT: growth

> print(dat)
                                   molecule          measured
1        Nc1ccc(C(=O)CSc2nc3ccccc3[nH]2)cc1   106% (inactive)
2  CCC(=O)OC1=CN2C(=NC(c3ccc(N)cc3)=CC2c2cc(OC)c(OC)c(OC)c2)S1 (stereo unspecified)    8.95% (active)
3  C1=Cc2ccccc2N(c2nnc(-c3ccccc3)o2)c2ccccc21  73.9% (inactive)
4  CCOC(=O)c1c(/N=C2\SC(=O)/C(=C\C(=O)OC)N2NC)sc2c1CCN(C(=O)OCC)C2   101% (inactive)
5  Nc1nc(-c2ccccc2)c(CCCOc2ccc(NC(=O)CBr)cc2)c(=O)[nH]1  29.1% (inactive)
6  CC(NNC(C)c1ccccc1)c1ccccc1 (stereo unspecified)   118% (inactive)
